test system: Escherichia coli; test: Antimicrobial activity against Escherichia coli KCTC 1682 after 16 hrs by broth microdilution assay; type: functional; settings: KCTC 1682, 16 h
The compounds listed here are annotated with their MIC.
property-name: MIC

INSERT INTO measurements (smiles_string, property_name, meas_value) VALUES
  ('COc1ccc(/C=N/NCc2ccc(C)cc2)c(O)c1', 'MIC', '> 32 µg/mL'),
  ('COc1ccc(O)c(/C=N/NCc2cccc(C(F)(F)F)c2)c1', 'MIC', '> 32 µg/mL'),
  ('CCOc1ccc(/C=N/NCc2ccc(Cl)c(Cl)c2)c(O)c1', 'MIC', '> 32 µg/mL'),
  ('COc1ccccc1/C=N/NCc1ccc(C(=O)O)cc1', 'MIC', '> 32 µg/mL'),
  ('COc1ccc(/C=N/NCc2ccc(C(F)(F)F)cc2)c(O)c1', 'MIC', '> 32 µg/mL'),
  ('Cc1ccc(/C=N/NCc2ccc(O)cc2O)cc1Cl', 'MIC', '32 µg/mL'),
  ('Oc1cccc(Br)c1/C=N/NCc1cccc(C(F)(F)F)c1', 'MIC', '> 32 µg/mL'),
  ('COc1ccc(/C=N/NCc2ccc(C(=O)O)cc2)c(OC)c1', 'MIC', '> 32 µg/mL'),
  ('CCCOc1ccc(/C=N/NCc2ccc(C(F)(F)F)cc2)c(O)c1', 'MIC', '> 32 µg/mL'),
  ('Oc1ccc(/C=N/NCc2ccc(C(F)(F)F)cc2)c(O)c1', 'MIC', '> 32 µg/mL'),
  ('Oc1ccc(/C=N/NCc2cccc(C(F)(F)F)c2)cc1', 'MIC', '32 µg/mL'),
  ('CCCOc1ccc(/C=N/NCc2ccc3ccccc3c2)c(O)c1', 'MIC', '> 32 µg/mL');

----------
test system: Acinetobacter baumannii; experiment: Antimicrobial activity against Acinetobacter baumannii KCTC 2508 after 16 hrs by broth microdilution assay; type: functional; settings: KCTC 2508, 16 h
property-name: MIC

INSERT INTO assay_data (smiles_string, property_name, meas_value) VALUES
  ('COc1ccc(O)c(/C=N/NCc2cccc(C(F)(F)F)c2)c1', 'MIC', '> 32 µg/mL'),
  ('COc1ccc(/C=N/NCc2ccc(C(=O)O)cc2)c(OC)c1', 'MIC', '> 32 µg/mL'),
  ('COc1ccc(/C=N/NCc2ccc(C)cc2)c(O)c1', 'MIC', '> 32 µg/mL'),
  ('Oc1cccc(Br)c1/C=N/NCc1cccc(C(F)(F)F)c1', 'MIC', '> 32 µg/mL'),
  ('CCCOc1ccc(/C=N/NCc2ccc3ccccc3c2)c(O)c1', 'MIC', '> 32 µg/mL'),
  ('Cc1ccc(/C=N/NCc2ccc(O)cc2O)cc1Cl', 'MIC', '2 µg/mL'),
  ('CCOc1ccc(/C=N/NCc2ccc(Cl)c(Cl)c2)c(O)c1', 'MIC', '> 32 µg/mL'),
  ('Oc1ccc(/C=N/NCc2cccc(C(F)(F)F)c2)cc1', 'MIC', '8 µg/mL'),
  ('CCCOc1ccc(/C=N/NCc2ccc(C(F)(F)F)cc2)c(O)c1', 'MIC', '> 32 µg/mL'),
  ('COc1ccc(/C=N/NCc2ccc(C(F)(F)F)cc2)c(O)c1', 'MIC', '> 32 µg/mL'),
  ('Oc1ccc(/C=N/NCc2ccc(C(F)(F)F)cc2)c(O)c1', 'MIC', '16 µg/mL'),
  ('COc1ccccc1/C=N/NCc1ccc(C(=O)O)cc1', 'MIC', '> 32 µg/mL');
